Tested on: allergen-induced degranulation of peripheral leukocytes
Experiment: Inhibition of the allergen-induced degranulation reaction of peripheral leukocytes (method of Siraganian and Hook)
Format: cell-based
Details: Homo sapiens, Leukocyte, Examples 3 to 5; no unit printed at the value; read-out: ID50 (the source's name)
pIC50: −log10 of the molar value. Where a name gives a salt, the structure may show the parent alone.
measured.parameter: pIC50

[[record]]
compound = "CN(C)C1=C(S)C(=CS)N(C)C1=O [Example 5, disodium salt]"
measured_target = "allergen-induced degranulation of peripheral leukocytes"
measured_parameter = "pIC50"
value_reported = 4.30


* * *

Tested on: allergen-induced degranulation of peripheral leukocytes
Test: Inhibition of the allergen-induced degranulation reaction of peripheral leukocytes (method of Siraganian and Hook)
Type: cell-based
Settings: Homo sapiens, Leukocyte, read-out: ID50
pIC50: −log10 of the molar value.
measured.parameter: pIC50

[[record]]
cpd_smiles = "CC(=O)Nc1c2sscc-2n(C)c1=O"
value_reported = 6.40


The measured values listed here are drawn from patent US4760077A.
